assayTarget: purified recombinant human PARP (Homo sapiens, UniProt P09874)
Construct: purchased Trevigan (Gaithersburg, Md.)
Sequence (P09874 whole entry): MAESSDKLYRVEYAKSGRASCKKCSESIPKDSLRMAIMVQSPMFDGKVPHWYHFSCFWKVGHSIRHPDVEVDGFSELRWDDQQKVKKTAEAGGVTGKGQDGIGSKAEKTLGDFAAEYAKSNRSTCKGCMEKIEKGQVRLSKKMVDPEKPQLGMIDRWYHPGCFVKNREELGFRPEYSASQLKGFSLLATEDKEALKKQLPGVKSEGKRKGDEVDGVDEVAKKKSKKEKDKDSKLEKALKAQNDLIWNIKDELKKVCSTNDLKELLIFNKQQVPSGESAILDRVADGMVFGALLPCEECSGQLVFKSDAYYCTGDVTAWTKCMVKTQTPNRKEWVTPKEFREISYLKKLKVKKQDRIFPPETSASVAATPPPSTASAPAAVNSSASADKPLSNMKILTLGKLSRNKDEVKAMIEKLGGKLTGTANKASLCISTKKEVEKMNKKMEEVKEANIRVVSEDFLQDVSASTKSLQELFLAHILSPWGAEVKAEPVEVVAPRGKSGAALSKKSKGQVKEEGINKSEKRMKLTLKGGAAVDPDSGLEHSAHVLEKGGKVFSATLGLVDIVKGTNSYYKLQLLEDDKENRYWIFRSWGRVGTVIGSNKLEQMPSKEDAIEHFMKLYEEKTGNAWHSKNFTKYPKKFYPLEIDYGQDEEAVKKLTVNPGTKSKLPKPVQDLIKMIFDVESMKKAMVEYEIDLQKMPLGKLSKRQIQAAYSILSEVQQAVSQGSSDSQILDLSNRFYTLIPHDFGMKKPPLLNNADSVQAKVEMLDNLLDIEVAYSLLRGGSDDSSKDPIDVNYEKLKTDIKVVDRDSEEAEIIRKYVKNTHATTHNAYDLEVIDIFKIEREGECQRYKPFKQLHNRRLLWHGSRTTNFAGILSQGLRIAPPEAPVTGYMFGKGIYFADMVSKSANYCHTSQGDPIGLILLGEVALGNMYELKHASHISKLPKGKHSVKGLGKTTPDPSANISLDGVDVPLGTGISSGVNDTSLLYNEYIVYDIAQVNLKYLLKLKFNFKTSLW
protocolDetails: PARP enzyme assay (IC50)
Assay type: biochemical
measurementParameters: approximate IC50 values, [3H]NAD, read-out: IC50
pIC50: −log10 of the molar value.
fulfilled means recorded pIC50 is 6 or above; not fulfilled means it is below 6.

| smilesInput | classAssignment |
| --- | --- |
| O=C1NCCn2c(-c3ccccc3F)nc3cccc1c32 | fulfilled |
| O=C1NCCn2c(CN(CCc3ccccc3)Cc3ccccc3)nc3cccc1c32 | not fulfilled |
| CC(C)(C)OC(=O)N1CCN(C(=O)c2cccc(-c3nc4cccc5c4n3CCNC5=O)c2)CC1 | fulfilled |
| O=C1NCCn2c(-c3cc(O)cc(O)c3)nc3cccc1c32 | fulfilled |
| O=C1NCCn2c(-c3ccc4ccccc4c3)nc3cccc1c32 | fulfilled |
